Hi there, I'd appreciate the recorded CC50 for every entry that follows.
# protocol-description: in vitro
# condition-parameters: human, CC50, BEAS-2B, 24 h exposure, resazurin; mean ± SD (n = 3)

*Q* Supply CC50 value. Item: CC(C)=CCC[C@](C)(O)[C@@H]1CC=C(C)CC1
*A* > 250 µM

*Q* For C/C1=C\CC(C)(C)/C=C/C(=O)/C(C)=C/CC1 , write its CC50.
*A* 149 µM

*Q* Fill in CC50 for record C=Cc1c(C)c2cc3nc(c4c5[nH]c(cc6nc(cc1[nH]2)C(C)=C6CC)c(C)c5C(=O)[C@@H]4C(=O)OC)[C@@H](CCC(=O)O)[C@@H]3C [Pheophorbide A]
*A* ~4.9 µM

*Q* Look up CC50 of COc1c(O)cc2oc(-c3ccc(O)cc3)cc(=O)c2c1O and report it.
*A* > 250 µM

*Q* Provide CC50 value for the following compound: COc1cc2oc(-c3ccc(O)c(O)c3)cc(=O)c2c(O)c1OC
*A* > 250 µM
